From: patent US9028845B2

I'd appreciate it if you could supply IFN-γ (pg/ml) mean values for the items below.
tested on: human PBMCs; assay: Human PBMC cytokine response assay (IFN-γ and IFN-α in cell-free medium by ELISA), with or without cPLGA; format: cell-based; conditions: mean of Donors 3-4; 20 μg/ml, 24 h;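 note: 20 µg/mL compound for 24 hours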
Strand notation (5' to 3'): a small letter for the sugar, then the base; units joined by * are phosphorothioate-linked, units joined directly phosphodiester-linked; [ ] holds rarer units or linkages, { } end groups; capitals alone tell only the bases. d = 2'-deoxy (DNA)
Express the result in pg/mL but write the number alone.

Item under review: 5′-ACGTTCG-3′ [Compound P-3, reference compound] . Reported IFN-γ (pg/ml) mean? 2

Quick one: IFN-γ (pg/ml) mean of 5′-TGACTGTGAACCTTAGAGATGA-3′ (SEQ ID NO: 3) (dT*dG*dA*dC*dT*dG*dT*dG*dA*dA*dC*dC*dT*dT*dA*dG*dA*dG*dA*dT*dG*dA) [Compound P-7, negative control, reference compound] ? 5

I have this substance here, 5′-TCGTCGA-3′ [Compound P-1, reference compound] , and I need its recorded IFN-γ (pg/ml) mean. 2

I am curious: what IFN-γ (pg/ml) mean value has been reported for 5′-TCGTCG-3′ [Compound P-2, reference compound] ? 2

Please give the measured IFN-γ (pg/ml) mean for this substance: 5′-AGATGAT-3′ [Compound P-4, reference compound] 1

Could you share which IFN-γ (pg/ml) mean value was measured for 5′-ATCTCGA-3′ [Compound P-5, reference compound] ? 2
